meta.source: patent US10738070B2

system: FimH (Escherichia coli)
Construct: endogenous in cells; host or cells: E. coli UTI89 bacteria
protocol_text: Hemagglutination inhibition (HAI) assay with UTI89 bacteria and guinea pig red blood cells
Type: cell-based
reported_conditions: concentration reducing bacterial agglutination of guinea pig red blood cells by greater than 90%; UTI89 bacteria
Tick Satisfied if HAI titer EC>90 is 0.2 µM or greater. Tick Not satisfied if HAI titer EC>90 is less than 0.2 µM.

1) CNC(=O)c1cccc(-c2ccc(O[C@H]3O[C@H](CO)[C@@H](O)[C@H](O)[C@@H]3O)c(C#N)c2)c1 [Example 39]: Not satisfied
2) Cc1cc(-c2cncc(C(=O)O)c2)ccc1O[C@H]1O[C@H](CO)[C@@H](O)[C@H](O)[C@@H]1O [Example 24]: Satisfied
3) Cc1cc(-c2ccc3c(c2)C(=O)N(C(C)C)CC3)ccc1O[C@H]1O[C@H](CO)[C@@H](O)[C@H](O)[C@@H]1O [Example 27]: Not satisfied
4) Cc1cc(Oc2ccccc2[N+](=O)[O-])c([N+](=O)[O-])cc1O[C@H]1O[C@H](CO)[C@@H](O)[C@H](O)[C@@H]1O [Example 29]: Satisfied
5) Cc1cc(-c2cccc3c(=O)[nH]ccc23)ccc1O[C@H]1O[C@H](CO)[C@@H](O)[C@H](O)[C@@H]1O [Example 16]: Not satisfied

----------
# HAI titer EC>90 per entry
system: FimH (Escherichia coli, UniProt Q1R2J4)
Construct: endogenous in cells; host or cells: E. coli UTI89 bacteria
protocol_text: Hemagglutination inhibition (HAI) assay with UTI89 bacteria and guinea pig red blood cells
Type: cell-based
reported_conditions: concentration reducing bacterial agglutination of guinea pig red blood cells by greater than 90%; UTI89 bacteria
result_type: HAI titer EC>90 (µM)

1. Cc1cc(-c2ccc3[nH]nc(C)c3c2)ccc1O[C@H]1O[C@H](CO)[C@@H](O)[C@H](O)[C@@H]1O: 0.062
2. Cc1cc(-c2ccc3[nH]nc(N)c3c2)ccc1O[C@H]1O[C@H](CO)[C@@H](O)[C@H](O)[C@@H]1O: 0.125
3. Cc1cc(-n2cc(-c3ccccc3)nn2)ccc1O[C@H]1O[C@H](CO)[C@@H](O)[C@H](O)[C@@H]1O: 0.032
4. Cc1cc(-n2cc(-c3ccccc3N)nn2)ccc1O[C@H]1O[C@H](CO)[C@@H](O)[C@H](O)[C@@H]1O: 0.15
5. Cc1cc(-c2ccc3ccn(C(C)C)c(=O)c3c2)ccc1O[C@H]1O[C@H](CO)[C@@H](O)[C@H](O)[C@@H]1O: 0.043
6. Cc1cc(Oc2ccc(C#N)cc2)c([N+](=O)[O-])cc1O[C@H]1O[C@H](CO)[C@@H](O)[C@H](O)[C@@H]1O: 0.5
7. CC(=O)Nc1cccc(Oc2cc(C)c(O[C@H]3O[C@H](CO)[C@@H](O)[C@H](O)[C@@H]3O)cc2[N+](=O)[O-])c1: 0.5
8. Cc1cc(-c2cncc(C(=O)NC(C)C)c2)ccc1O[C@H]1O[C@H](CO)[C@@H](O)[C@H](O)[C@@H]1O: 0.032
9. CC(=O)Nc1ccccc1Oc1cc(C)c(O[C@H]2O[C@H](CO)[C@@H](O)[C@H](O)[C@@H]2O)cc1[N+](=O)[O-]: 1.5
